meta.source: patent US20260317319A1

This listing pairs compounds with measured pEC50.
# target.system: 5-HT2B receptor (Homo sapiens)
# experiment: cell-based
# settings: agonist, Ca2+ flux, HEK293
pEC50: −log10 of the molar value.

[
  {
    "smiles.str": "CCN(CC)C(=O)[C@@H]1C=C2c3cccc4[nH]cc(c34)C[C@H]2N(Cc2ccnc(OC)c2)C1",
    "experimental.value": "< 5.00"
  },
  {
    "smiles.str": "CCN(CC)C(=O)[C@@H]1C=C2c3cccc4[nH]cc(c34)C[C@H]2N(Cc2cocn2)C1",
    "experimental.value": 6.43
  },
  {
    "smiles.str": "CCN(CC)C(=O)[C@@H]1C=C2c3cccc4[nH]cc(c34)C[C@H]2N(CC2CCCCC2)C1",
    "experimental.value": "< 5.00"
  },
  {
    "smiles.str": "CCN(CC)C(=O)[C@@H]1C=C2c3cccc4[nH]cc(c34)C[C@H]2N(Cc2cccc(C)c2)C1",
    "experimental.value": "< 5.00"
  },
  {
    "smiles.str": "CCN(CC)C(=O)[C@@H]1C=C2c3cccc4[nH]cc(c34)C[C@H]2N(Cc2cccs2)C1",
    "experimental.value": 6.14
  }
]

Check the records and state pEC50 for CC[C@@H](C)NC(=O)[C@@H]1C=C2c3cccc4[nH]cc(c34)C[C@H]2N(Cc2cccc(OC)c2)C1 < 5.00

Check the records and state pEC50 for CCN(C)C(=O)[C@@H]1C=C2c3cccc4[nH]cc(c34)C[C@H]2N(Cc2cccc(OC)c2)C1 < 5.00

Check the records and state pEC50 for CCN(CC)C(=O)[C@@H]1C=C2c3cccc4[nH]cc(c34)C[C@H]2NC1 7.65

Check the records and state pEC50 for CCN(CC)C(=O)[C@@H]1C=C2c3cccc4[nH]cc(c34)C[C@H]2N(Cc2ccc(F)c(F)c2)C1 < 5.00

Check the records and state pEC50 for CCN(CC)C(=O)[C@@H]1C=C2c3cccc4[nH]cc(c34)C[C@H]2N(Cc2cccc3ccccc23)C1 < 5.00

###

# target.system: 5-HT1A receptor (Homo sapiens)
# Construct: expressed in transfected cells; host or cells: CHO cells, stably transfected
# Sequence (P08908 whole entry): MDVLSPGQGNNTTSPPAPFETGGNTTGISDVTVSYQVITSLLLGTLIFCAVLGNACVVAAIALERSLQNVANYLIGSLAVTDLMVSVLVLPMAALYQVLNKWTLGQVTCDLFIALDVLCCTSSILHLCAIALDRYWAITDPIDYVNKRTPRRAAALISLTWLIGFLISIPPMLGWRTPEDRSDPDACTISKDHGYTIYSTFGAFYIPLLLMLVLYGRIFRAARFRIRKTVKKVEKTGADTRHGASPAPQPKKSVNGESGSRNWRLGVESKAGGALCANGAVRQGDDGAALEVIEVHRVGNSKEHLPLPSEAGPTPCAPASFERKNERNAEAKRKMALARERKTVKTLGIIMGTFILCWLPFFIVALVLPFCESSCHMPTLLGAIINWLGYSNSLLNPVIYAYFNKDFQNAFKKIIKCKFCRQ
# experiment: cell-based
# settings: CHO, agonist, Ca2+ flux, CHO cells with Gα15, max dose; read-out: 5-HT1A % Act @ Max Dose
This listing pairs compounds with measured Emax.
Quick note: give the figure in %, leave out the unit.

Known results for compounds:
[
  {
    "smiles.str": "CN1C[C@H](C(=O)N(CCF)CCF)C=C2c3cccc4[nH]cc(c34)C[C@H]21",
    "Emax / %": 90.5
  },
  {
    "smiles.str": "C=CCN1C[C@H](C(=O)N[C@H](C)CC)C=C2c3cccc4[nH]cc(c34)C[C@H]21",
    "Emax / %": 116
  }
]

Would you please give the reported Emax of CCN(CC)C(=O)[C@H]1C=C2c3cccc4[nH]cc(c34)C[C@H]2N(CCCF)C1 with 5-HT1A receptor (Homo sapiens)? 96.8

Would you please give the reported Emax of CCN(C)C(=O)[C@@H]1C=C2c3cccc4[nH]cc(c34)C[C@H]2N(CC2CCCC2)C1 with 5-HT1A receptor (Homo sapiens)? 122

Would you please give the reported Emax of CCCN(CC)C(=O)[C@@H]1C=C2c3cccc4[nH]cc(c34)C[C@H]2N(Cc2cccc(OC)c2)C1 with 5-HT1A receptor (Homo sapiens)? 21.1

Would you please give the reported Emax of CCN(CC)C(=O)[C@@H]1C=C2c3cccc4[nH]cc(c34)C[C@H]2N(Cc2ccc(F)c(F)c2)C1 with 5-HT1A receptor (Homo sapiens)? 51

Would you please give the reported Emax of CCNC(=O)[C@@H]1C=C2c3cccc4[nH]cc(c34)C[C@H]2N(Cc2cccc(O)c2)C1 with 5-HT1A receptor (Homo sapiens)? 87

###

# target.system: 5-HT2B receptor (Homo sapiens)
# Construct: expressed in transfected cells; host or cells: HEK293, stably transfected
# experiment: cell-based
# Assay type: cell-based
# settings: HEK293, agonist, Ca2+ flux, HEK293, max dose; read-out: 5-HT2B % Act @ Max Dose
This listing pairs compounds with measured Emax.
Quick note: give the figure in %, leave out the unit.

[
  {
    "smiles.str": "CCC[C@@H](C)NC(=O)[C@@H]1C=C2c3cccc4[nH]cc(c34)C[C@H]2N(C)C1",
    "output.unit": "%",
    "experimental.value": 25.5
  }
]

Check the records and state Emax for CCN(CC)C(=O)[C@@H]1C=C2c3cccc4[nH]cc(c34)C[C@H]2N(Cc2ccccc2OC)C1 2

Check the records and state Emax for CCN(C)C(=O)[C@@H]1C=C2c3cccc4[nH]cc(c34)C[C@H]2N(Cc2ccccc2)C1 3.73

###

# experiment: in vitro
# Type: in vitro ADME, human
# settings: human, microsomes, role: substrate; metabolite 83 formed in HLM, T = 15; read-out: Metabolite Formation (percent formation of metabolite 83)
# Procedure: The ability of deuteration in compound 68 to attenuate formation of metabolite 83 compared to the same transformation of the non-deuterated compound 18 was also determined. HLM Stability. Pooled HLM from adult male and female donors (Corning 452117) were used.
measurement.kind: metabolised (%)
Quick note: give the figure in %, leave out the unit.

[
  {
    "smiles.str": "[2H]C([2H])(c1cccc(OC)c1)N1C[C@H](C(=O)N(CC)CC)C=C2c3cccc4[nH]cc(c34)C[C@H]21",
    "output.unit": "%",
    "experimental.value": 4.3
  }
]

Then this molecule:
Check the records and state metabolised for CCN(CC)C(=O)[C@@H]1C=C2c3cccc4[nH]cc(c34)C[C@H]2N(Cc2cccc(OC)c2)C1 6.1

###

This listing pairs molecules with measured Ki.
# target.system: 5-HT2A receptor (Homo sapiens, UniProt P28223)
# Sequence (P28223 whole entry): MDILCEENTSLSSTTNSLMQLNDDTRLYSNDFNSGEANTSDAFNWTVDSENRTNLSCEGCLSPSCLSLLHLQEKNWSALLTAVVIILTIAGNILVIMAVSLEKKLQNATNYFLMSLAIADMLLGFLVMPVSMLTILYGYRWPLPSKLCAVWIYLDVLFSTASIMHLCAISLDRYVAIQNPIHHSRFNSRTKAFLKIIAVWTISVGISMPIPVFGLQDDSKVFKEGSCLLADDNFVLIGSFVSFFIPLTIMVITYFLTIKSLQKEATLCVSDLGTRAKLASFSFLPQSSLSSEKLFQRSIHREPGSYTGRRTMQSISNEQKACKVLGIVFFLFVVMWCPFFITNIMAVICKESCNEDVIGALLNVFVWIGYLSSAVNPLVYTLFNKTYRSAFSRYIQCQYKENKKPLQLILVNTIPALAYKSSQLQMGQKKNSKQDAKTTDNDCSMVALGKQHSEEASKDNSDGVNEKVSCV
Quick note: give the figure in nM, leave out the unit.

Known results for molecules:
[
  {
    "smiles.str": "CCN(CC)C(=O)[C@@H]1C=C2c3cccc4[nH]cc(c34)C[C@H]2N(CC2CCCCC2)C1",
    "measurement.kind": "Ki",
    "experimental.value": 1.67
  },
  {
    "smiles.str": "[2H]C([2H])(c1cccc(OC)c1)N1C[C@H](C(=O)N(CC)CC)C=C2c3cccc4[nH]cc(c34)C[C@H]21",
    "measurement.kind": "Ki",
    "experimental.value": 3.02
  },
  {
    "smiles.str": "CCN(C)C(=O)[C@@H]1C=C2c3cccc4[nH]cc(c34)C[C@H]2N(Cc2ccccc2)C1",
    "measurement.kind": "Ki",
    "experimental.value": 1.27
  }
]

Would you please give the reported Ki of CCN(CC)C(=O)[C@@H]1C=C2c3cccc4[nH]cc(c34)C[C@H]2N(Cc2cccc(F)c2)C1 with 5-HT2A receptor (Homo sapiens, UniProt P28223)? 5.39

###

# experiment: in vitro
# Type: in vitro ADME, rat
# settings: rat, microsomes; RLM (male Sprague-Dawley) 0.50 mg/mL, NADPH 1 mM, 1 μM compound, pH 7.4, 37° C., 60 min; read-out: half-life (t1/2)
measurement.kind: half-life (min)
Quick note: give the figure in min, leave out the unit.

Check the records and state half-life for CCN(CC)C(=O)[C@@H]1C=C2c3cccc4[nH]cc(c34)C[C@H]2N(Cc2cocn2)C1 26.8

Check the records and state half-life for CCN(CC)C(=O)[C@@H]1C=C2c3cccc4[nH]cc(c34)C[C@H]2N(Cc2cccc3ccccc23)C1 2.6

Check the records and state half-life for CCN(CC)C(=O)[C@@H]1C=C2c3cccc4[nH]cc(c34)C[C@H]2N(Cc2cnco2)C1 24.6

Check the records and state half-life for CC[C@@H](C)NC(=O)[C@@H]1C=C2c3cccc4[nH]cc(c34)C[C@H]2N(Cc2cccc(OC)c2)C1 0.9

Check the records and state half-life for CC[C@@H](C)NC(=O)[C@@H]1C=C2c3cccc4[nH]cc(c34)C[C@H]2N(Cc2ccccc2)C1 5.6

Check the records and state half-life for CC[C@@H](C)NC(=O)[C@H]1C=C2c3cccc4[nH]cc(c34)C[C@H]2N(Cc2ccccc2)C1 [Compound 88a] 1.7

Check the records and state half-life for CCN(CC)C(=O)[C@@H]1C=C2c3cccc4[nH]cc(c34)C[C@H]2N(Cc2ccc(F)c(OC)c2)C1 9.1

###

# target.system: 5-HT2B receptor (Homo sapiens, UniProt P41595)
# Construct: expressed in transfected cells; host or cells: HEK293, stably transfected
# Sequence (P41595 whole entry): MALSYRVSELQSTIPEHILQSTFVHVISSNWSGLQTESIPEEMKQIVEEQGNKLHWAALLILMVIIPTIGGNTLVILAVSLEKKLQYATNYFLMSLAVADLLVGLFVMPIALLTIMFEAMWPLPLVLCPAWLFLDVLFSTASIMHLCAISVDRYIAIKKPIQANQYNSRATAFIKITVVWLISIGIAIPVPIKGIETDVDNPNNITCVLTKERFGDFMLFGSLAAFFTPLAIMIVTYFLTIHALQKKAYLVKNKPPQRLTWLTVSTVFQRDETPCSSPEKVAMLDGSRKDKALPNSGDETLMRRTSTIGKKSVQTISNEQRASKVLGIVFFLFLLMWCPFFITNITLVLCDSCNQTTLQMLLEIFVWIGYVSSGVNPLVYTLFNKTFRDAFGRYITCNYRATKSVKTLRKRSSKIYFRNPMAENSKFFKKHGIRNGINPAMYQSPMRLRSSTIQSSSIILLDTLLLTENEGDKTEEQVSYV
# experiment: cell-based
# Assay type: cell-based
# settings: HEK293, agonist, Ca2+ flux, HEK293, max dose; read-out: 5-HT2B % Act @ Max Dose
measurement.kind: Emax (%)
Quick note: give the figure in %, leave out the unit.

[
  {
    "compound": "C=CCN1C[C@H](C(=O)N[C@H](C)CC)C=C2c3cccc4[nH]cc(c34)C[C@H]21 [Compound 8]",
    "target.system": "5-HT2B receptor (Homo sapiens, UniProt P41595)",
    "Emax (%)": 91.6
  },
  {
    "compound": "CCN(CC)C(=O)[C@@H]1C=C2c3cccc4[nH]cc(c34)C[C@H]2N(Cc2ccccc2C)C1 [Compound 99]",
    "target.system": "5-HT2B receptor (Homo sapiens, UniProt P41595)",
    "Emax (%)": 1.41
  }
]

Check the records and state Emax for C[C@H]1C[C@H](C)N1C(=O)[C@@H]1C=C2c3cccc4[nH]cc(c34)C[C@H]2N(Cc2ccccc2)C1 [Compound 87] 10

Check the records and state Emax for CC[C@@H](C)NC(=O)[C@@H]1C=C2c3cccc4[nH]c(Br)c(c34)C[C@H]2N(C)C1 [Compound 43] 1

Check the records and state Emax for CCN(C)C(=O)[C@@H]1C=C2c3cccc4[nH]cc(c34)C[C@H]2N(Cc2cccc(OC)c2)C1 [Compound 92] 0.48

Check the records and state Emax for CCNC(=O)[C@@H]1C=C2c3cccc4[nH]cc(c34)C[C@H]2N(Cc2cccc(O)c2)C1 [Compound 64] 1.49

Check the records and state Emax for CCN(CC)C(=O)[C@@H]1C=C2c3cccc4[nH]cc(c34)C[C@H]2N(Cc2cocn2)C1 [Compound 73] 60.9

Check the records and state Emax for CCN(CC)C(=O)[C@@H]1C=C2c3cccc4[nH]c(Br)c(c34)C[C@H]2N(CCCF)C1 [Compound 41] 84.5

Check the records and state Emax for CC[C@@H](C)NC(=O)[C@@H]1C=C2c3cccc4[nH]cc(c34)C[C@H]2N(CCC(F)(F)F)C1 [Compound 40] 8.46

Check the records and state Emax for CCCN(CC)C(=O)[C@@H]1C=C2c3cccc4[nH]cc(c34)C[C@H]2N(Cc2ccccc2)C1 [Compound 86] 7.82

Check the records and state Emax for CCN(CC)C(=O)[C@@H]1C=C2c3cccc4[nH]cc(c34)C[C@H]2N(Cc2cccc(O)c2)C1 [Compound 62] 9.88

Check the records and state Emax for CN(C)C(=O)[C@@H]1C=C2c3cccc4[nH]cc(c34)C[C@H]2N(Cc2ccccc2)C1 [Compound 102] 5.86

Check the records and state Emax for CCN(CC)C(=O)[C@@H]1C=C2c3cccc4[nH]cc(c34)C[C@H]2N(Cc2cccc(C)c2)C1 [Compound 98] 3.37
